# Test target: EGFR (Homo sapiens)
# Construct: host or cells: A431
# Sequence (P00533 25-1210): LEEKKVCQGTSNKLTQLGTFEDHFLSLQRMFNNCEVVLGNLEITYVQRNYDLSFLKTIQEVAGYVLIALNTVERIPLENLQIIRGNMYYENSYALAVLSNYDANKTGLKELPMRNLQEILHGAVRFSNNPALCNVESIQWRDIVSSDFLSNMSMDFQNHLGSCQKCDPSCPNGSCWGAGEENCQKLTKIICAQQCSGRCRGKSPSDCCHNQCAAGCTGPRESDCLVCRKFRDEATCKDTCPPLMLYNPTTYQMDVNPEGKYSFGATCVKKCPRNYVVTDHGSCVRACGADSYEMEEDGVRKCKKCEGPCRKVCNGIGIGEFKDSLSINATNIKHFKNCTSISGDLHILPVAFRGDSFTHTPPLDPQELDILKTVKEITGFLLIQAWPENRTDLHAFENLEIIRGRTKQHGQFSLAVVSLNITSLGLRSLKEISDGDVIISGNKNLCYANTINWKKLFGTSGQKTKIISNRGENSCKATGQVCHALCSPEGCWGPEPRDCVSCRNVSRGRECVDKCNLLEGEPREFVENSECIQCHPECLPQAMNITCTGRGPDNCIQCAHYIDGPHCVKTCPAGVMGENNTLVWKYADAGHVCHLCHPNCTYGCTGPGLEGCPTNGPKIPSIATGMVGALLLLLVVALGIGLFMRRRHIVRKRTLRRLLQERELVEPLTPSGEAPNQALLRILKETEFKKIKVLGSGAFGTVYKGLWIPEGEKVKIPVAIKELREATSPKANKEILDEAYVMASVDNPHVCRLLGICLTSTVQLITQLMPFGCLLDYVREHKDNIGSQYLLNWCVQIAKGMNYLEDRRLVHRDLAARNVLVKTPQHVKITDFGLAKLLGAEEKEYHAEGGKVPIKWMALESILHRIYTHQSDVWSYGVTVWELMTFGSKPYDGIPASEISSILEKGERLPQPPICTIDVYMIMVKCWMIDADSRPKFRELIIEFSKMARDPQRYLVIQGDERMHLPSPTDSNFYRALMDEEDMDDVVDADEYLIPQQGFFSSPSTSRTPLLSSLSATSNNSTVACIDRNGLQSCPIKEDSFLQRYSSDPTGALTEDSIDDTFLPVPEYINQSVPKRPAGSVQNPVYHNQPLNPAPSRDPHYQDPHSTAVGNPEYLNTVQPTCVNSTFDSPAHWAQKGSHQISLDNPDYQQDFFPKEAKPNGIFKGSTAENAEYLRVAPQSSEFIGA
# Test description: EGFR in-cell Western (ICW) screening protocol (EGFR inhibition assay)
# Type: cell-based
# Design: unit not given here
# Condition label: ICW assay, run 1
Where a name gives a salt, the structure may show the parent alone.
Catalogue of molecules with associated ICW 1

# Molecule, ICW 1
data = [
    ("Cc1ccc2nc(Nc3nc(=O)cc(-c4ccccc4)[nH]3)nc(C)c2c1", 58.11),
    ("CCc1c(C)nc(Nc2nc(C)c3cccc(OC)c3n2)[nH]c1=O [compound 12613]", 47.72),
    ("COc1ccc(-c2cc(=O)[nH]c(Nc3nc(C)c4ccccc4n3)n2)cc1OC [11471 + TFA]", 37.43),
    ("CCOc1ccc2nc(Nc3nc(=O)c(Cc4ccc(C)cc4)c(C)[nH]3)nc(C)c2c1", 50.14),
    ("CCOc1cccc2c(C)nc(Nc3nc(C)c(Cc4ccc(C)cc4)c(=O)[nH]3)nc12 [11753 + TFA]", 42.44),
    ("CCOc1cccc2c(C)nc(Nc3nc(C)c(C)c(=O)[nH]3)nc12 [12735 + TFA]", 69.46),
    ("CCc1c(C)nc(Nc2nc(C)c3ccc(C)cc3n2)[nH]c1=O [12683 + TFA]", 54.37),
    ("Cc1ccc2c(C)nc(Nc3nc(CSc4nnc(C)s4)cc(=O)[nH]3)nc2c1", 26.79),
    ("Cc1ccc2nc(Nc3nc(-c4ccccc4C)cc(=O)[nH]3)nc(C)c2c1 [11785 + TFA]", 41.06),
    ("CCCc1c(C)nc(Nc2nc(C)c3cccc(C)c3n2)[nH]c1=O [compound 12742]", 33.49),
    ("Cc1cc(C)nc(Nc2nc(-c3ccccc3)c3ccc(Cl)cc3n2)n1 [compound 11636]", 61.28),
    ("Cc1ccc(SCc2cc(=O)[nH]c(Nc3nc(C)c4cc(C)cc(C)c4n3)n2)cc1 [11727 + TFA]", 37.00),
    ("C=CCc1c(C)nc(Nc2nc(C)c3cc(CC)ccc3n2)[nH]c1=O", 28.51),
    ("COc1ccc2nc(Nc3nc(CSc4ccc(C)cc4)cc(=O)[nH]3)nc(C)c2c1", 27.71),
    ("Cc1cc(C)nc(Nc2nc(N)c3ccccc3n2)n1", 62.56),
    ("Cc1cc(C)c2nc(Nc3nc(CSc4ccc(Cl)cc4)cc(=O)[nH]3)nc(C)c2c1 [11726 + TFA]", 35.72),
    ("C=CCc1c(C)nc(Nc2nc(C)c3ccccc3n2)[nH]c1=O [12610 + TFA]", 41.25),
    ("Cc1cc(C)nc(Nc2nc(-c3ccccc3)c3ccc(Cl)cc3n2)n1 [compound 12636]", 49.55),
    ("CCOC(=O)c1c(N)nc(Nc2nc(C)c3cc(C)c(C)cc3n2)nc1-c1ccccc1", 52.17),
    ("CCCc1cc(=O)[nH]c(Nc2nc(C)c3cc(C)c(C)cc3n2)n1 [12654 + TFA]", 37.92),
    ("CCCc1c(C)nc(Nc2nc(C)c3cc(C)ccc3n2)[nH]c1=O", 29.45),
    ("CCCCc1c(C)nc(Nc2nc(C)c3ccccc3n2)[nH]c1=O [12603 + TFA]", 48.06),
    ("Cc1cc(C(F)(F)F)nc(Nc2nc(C)c3ccccc3n2)n1", 38.67),
    ("CCc1c(C)[nH]c(Nc2nc(C)c3cc(C)c(C)cc3n2)nc1=O [11809 + TFA]", 31.42),
    ("Cc1ccc2[nH]c(Nc3nc(C)cc(-c4ccccc4)n3)nc(=O)c2c1", 48.33),
    ("COc1cccc2c(C)nc(Nc3nc(C)c(C)c(=O)[nH]3)nc12 [12723 + TFA]", 67.34),
    ("CCOc1cccc2c(C)nc(Nc3nc(-c4ccccc4)cc(=O)[nH]3)nc12", 53.35),
]
